# assayed.target: Na+ channel (site 2); sodium channel alpha subunit (family) (Homo sapiens, UniProt P35498+P35499+Q01118+Q14524+Q15858+Q99250+Q9NY46+Q9UI33+Q9UQD0+Q9Y5Y9)
# protocol.details: Na+ channel (site 2) CEREP ligand profiling
# Format: protein assay
# assay.context: compound concentration 10 uM

# molecule, inhibition at 10 µM
rows = [
    ("CNC(=O)Nc1ccc2c(c1)CC[C@@]21OC(=O)N(CC(=O)N(Cc2ccc(F)cc2)[C@@H](C)C(F)(F)F)C1=O [A-485]", "19% (not active)"),
    ("CNC(=O)Nc1ccc2c(c1)[C@@]1(CC2)OC(=O)N(CC(=O)N(Cc2ccc(F)cc2)[C@@H](C)C(F)(F)F)C1=O [A-486]", "-5% (not active)"),
]

====

# assayed.target: Sigma intracellular receptor 2 (Homo sapiens, UniProt Q5BJF2)
# Sequence (Q5BJF2 whole entry): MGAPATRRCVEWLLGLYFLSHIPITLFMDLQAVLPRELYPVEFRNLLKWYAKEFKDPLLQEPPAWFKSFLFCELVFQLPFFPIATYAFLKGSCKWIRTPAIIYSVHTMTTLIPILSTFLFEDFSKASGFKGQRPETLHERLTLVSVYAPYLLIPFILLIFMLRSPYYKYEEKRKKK
# protocol.details: GPCRScan assay: inhibition of Sigma 2
# Parameters: radioligand conc. used [nm] 5.0, parental cells HEKT
# assay.context: read-out: Ki
measured.endpoint: Ki

# mol, meas.value
rows = [
    ("CNC(=O)Nc1ccc2c(c1)[C@@]1(CC2)OC(=O)N(CC(=O)N(Cc2ccc(F)cc2)[C@@H](C)C(F)(F)F)C1=O", "3.27 µM"),
    ("CNC(=O)Nc1ccc2c(c1)CC[C@@]21OC(=O)N(CC(=O)N(Cc2ccc(F)cc2)[C@@H](C)C(F)(F)F)C1=O", "5.53 µM"),
]

====

# assayed.target: Sodium-dependent serotonin transporter (Homo sapiens, UniProt P31645)
# Sequence (P31645 whole entry): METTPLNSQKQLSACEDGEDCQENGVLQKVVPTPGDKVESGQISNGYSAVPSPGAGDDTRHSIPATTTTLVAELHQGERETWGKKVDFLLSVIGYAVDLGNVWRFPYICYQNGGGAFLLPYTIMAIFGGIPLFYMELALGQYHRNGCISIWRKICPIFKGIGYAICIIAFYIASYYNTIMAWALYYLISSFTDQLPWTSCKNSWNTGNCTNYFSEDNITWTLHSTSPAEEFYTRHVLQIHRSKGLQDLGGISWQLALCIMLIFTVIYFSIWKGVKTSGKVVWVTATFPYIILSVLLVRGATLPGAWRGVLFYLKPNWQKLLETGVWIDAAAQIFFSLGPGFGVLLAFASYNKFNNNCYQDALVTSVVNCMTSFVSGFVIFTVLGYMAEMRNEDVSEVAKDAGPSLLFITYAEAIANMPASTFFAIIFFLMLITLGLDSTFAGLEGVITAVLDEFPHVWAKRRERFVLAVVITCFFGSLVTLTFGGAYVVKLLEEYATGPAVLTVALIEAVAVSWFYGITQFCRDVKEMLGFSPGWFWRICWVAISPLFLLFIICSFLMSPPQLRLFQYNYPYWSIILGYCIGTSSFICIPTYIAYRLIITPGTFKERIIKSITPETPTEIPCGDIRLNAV
# protocol.details: GPCRScan assay: inhibition of SERT
# Design: radioligand conc. used [nm] 1.5 – 2.0, parental cells stable HEK
# assay.context: read-out: Ki

# mol, assayed.target, Ki / nM
records = [
    ("CNC(=O)Nc1ccc2c(c1)CC[C@@]21OC(=O)N(CC(=O)N(Cc2ccc(F)cc2)[C@@H](C)C(F)(F)F)C1=O", "Sodium-dependent serotonin transporter (Homo sapiens, UniProt P31645)", 223),
]

====

# assayed.target: 5-hydroxytryptamine receptor 2B (Homo sapiens)
# Sequence (P41595 whole entry): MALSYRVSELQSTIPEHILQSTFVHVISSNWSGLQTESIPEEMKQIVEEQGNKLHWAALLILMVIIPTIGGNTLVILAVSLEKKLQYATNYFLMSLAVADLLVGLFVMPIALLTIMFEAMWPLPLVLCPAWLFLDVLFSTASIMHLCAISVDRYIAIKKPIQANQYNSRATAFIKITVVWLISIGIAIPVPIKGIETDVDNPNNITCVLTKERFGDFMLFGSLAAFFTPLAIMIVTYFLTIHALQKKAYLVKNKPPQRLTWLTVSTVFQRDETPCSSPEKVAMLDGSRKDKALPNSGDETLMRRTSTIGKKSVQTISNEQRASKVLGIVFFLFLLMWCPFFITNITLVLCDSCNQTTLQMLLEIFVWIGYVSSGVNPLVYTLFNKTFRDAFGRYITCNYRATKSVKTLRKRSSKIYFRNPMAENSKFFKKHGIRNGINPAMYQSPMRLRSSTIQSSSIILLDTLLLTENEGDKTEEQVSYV
# protocol.details: GPCRScan assay: inhibition of 5-HT2B
# Parameters: radioligand conc. used [nm] 1.0 – 2.0, parental cells stable HEK
# assay.context: read-out: Ki

# mol, units.of.measure, Ki
rows = [
    ("CNC(=O)Nc1ccc2c(c1)CC[C@@]21OC(=O)N(CC(=O)N(Cc2ccc(F)cc2)[C@@H](C)C(F)(F)F)C1=O", "µM", 1.29),
]

====

# assayed.target: D(3) dopamine receptor (Homo sapiens)
# Sequence (P35462 whole entry): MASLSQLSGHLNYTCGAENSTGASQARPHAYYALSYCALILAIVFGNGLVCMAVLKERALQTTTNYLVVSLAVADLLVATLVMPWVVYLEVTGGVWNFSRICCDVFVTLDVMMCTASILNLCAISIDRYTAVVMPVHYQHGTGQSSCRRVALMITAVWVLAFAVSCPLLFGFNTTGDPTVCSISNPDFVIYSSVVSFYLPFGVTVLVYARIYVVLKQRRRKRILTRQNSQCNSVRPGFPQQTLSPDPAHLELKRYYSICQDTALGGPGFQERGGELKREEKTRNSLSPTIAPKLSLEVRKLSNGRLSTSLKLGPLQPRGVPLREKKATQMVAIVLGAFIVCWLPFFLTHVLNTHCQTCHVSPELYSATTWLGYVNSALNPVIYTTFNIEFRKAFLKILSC
# protocol.details: GPCRScan assay: inhibition of D3
# Set-up: radioligand conc. used [nm] 0.5 – 1.8, parental cells HEKT
# assay.context: read-out: Ki
measured.endpoint: Ki

# compound, meas.value
measured = [
    ("CNC(=O)Nc1ccc2c(c1)[C@@]1(CC2)OC(=O)N(CC(=O)N(Cc2ccc(F)cc2)[C@@H](C)C(F)(F)F)C1=O [A-486]", "1140 nM"),
]
